Data credit: paper PMC5515969

tested on: RCC III; test: RCC III activity in submitochondrial particles; type: biochemical, rat; conditions: 100-fold Cmax; 15 min; DMSO-treated = 100
observationType: RCC activity III

Worked set:
>>> print(df.to_string())
                          chemicalstructure  systemundertest   observationtype                    measured
0  COc1cc(Nc2c(C#N)cnc3cc(OCCCN4CCN(C)CC4)c(OC)cc23)c(Cl)cc1Cl          RCC III  RCC activity III  101.81 ± 4.43 % of control
1  Cc1cc(Nc2ncc(Cl)c(Nc3ccccc3S(=O)(=O)C(C)C)n2)c(OC(C)C)cc1C1CCNCC1          RCC III  RCC activity III   68.48 ± 6.59 % of control
2  COc1cc2c(Nc3ccc(Br)cc3F)ncnc2cc1OCC1CCN(C)CC1          RCC III  RCC activity III   91.23 ± 6.54 % of control

Let's switch to this compound now.
Name the recorded RCC activity III for C[C@@H](Oc1cc(-c2cnn(C3CCNCC3)c2)cnc1N)c1c(Cl)ccc(F)c1Cl .
103.28 ± 2.85 % of control
